# study-system: T1, 15-mer peptide LGIWGCSGKLICTTT (SEQ ID NO:1) (HIV, not fully specified; cysteine pairing not given here)
# T1 construct: also called U1731DB060-1; U173DB060-1
# T1 peptide: LGIWGCSGKLICTTT
# experiment-summary: indirect ELISA; 15-mer peptide coated 1 ug/ml in DTT; antibody at 111 ng/ml
No end group written: not given here.
So basically: ELISA OD at 0.08 OD or higher? That is met. Lower than 0.08 OD? That is not met.

Example results:
- binder: "HIV-binding peptide #9Q (antibody, human IgG1, V domains shown) VH: QVQLQESGGGVVQPGRSLRLSCAASGFTFSSYAIHWVRQAPGKGLEWVAVISYDGSNRYYADSVKGRFTISRDNSKNTLYLQMNSLRPEDTAVYYCARDRFSAVASTPTYHNYFYMDVWGKGTTVTVSS"
  category: "met"
- binder: "HIV-binding peptide #2 (antibody, human IgG1, kappa, V domains shown, Recombinant, fully human immunoglobulin; also called U1205DB020-2) VH: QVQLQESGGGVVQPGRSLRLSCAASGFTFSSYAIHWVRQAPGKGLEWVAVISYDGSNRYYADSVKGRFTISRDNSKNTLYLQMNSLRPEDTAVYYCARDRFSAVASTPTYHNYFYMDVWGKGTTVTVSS VL: DIQMTQSPSSLSASVGDRVTITCQASQDINNYLAWYQQKPGQAPRLLIYDASNLETGVPSRFSGSGSGTDFTLTISSLQPEDLATYYCQQYDNTPYTFGQGTKLEIKR"
  category: "met"
- binder: "HIV-binding peptide #1 (antibody, human IgG1, kappa, V domains shown, Recombinant, fully human immunoglobulin; also called U1205DB020-1) VH: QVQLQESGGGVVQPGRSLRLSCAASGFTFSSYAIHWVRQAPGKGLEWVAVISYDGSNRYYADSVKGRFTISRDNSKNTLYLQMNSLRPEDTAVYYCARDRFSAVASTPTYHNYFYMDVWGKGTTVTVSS VL: DIQMTQSPSSLSASVGDRVTITCQASQDVNNYLAWYQQKPGQAPRLLIYDASNLETGVPSRFSGSGSGTDFTLTISSLQPEDLATYYCQQYDNTPYTFGQGTKLEIKR"
  category: "not met"

Turning to the following binder.
Q: Would you say HIV-binding peptide #4 (antibody, human IgG1, kappa, V domains shown, Recombinant, fully human immunoglobulin; also called U1205DB020-4) VH: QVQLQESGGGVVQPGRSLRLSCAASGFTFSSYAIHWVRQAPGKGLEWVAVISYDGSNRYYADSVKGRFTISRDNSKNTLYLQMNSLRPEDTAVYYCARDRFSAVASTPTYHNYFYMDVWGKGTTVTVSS VL: DIQMTQSPSSLSASVGDRVTITCQASQDINNYLAWYQQKPGQAPRLLIYDASNLETGVPSRFSGSGSGTDFTLTISSLQPEDLATYYCQQYDNLPYTFGQGTKLEIKR shows ELISA OD at minimum 0.08 OD?
Ans: not met
